Test: NCI Yeast Anticancer Drug Screen. Data for the mec2-1 strain (AID 157)
Conditions: S. cerevisiae mec2-1 strain, at 50.0 µM
This is part of a sample that, as a whole, favours compounds with a hit. Of some 79,000 tested, about 15% had one in any assay. The source made the active and inactive calls. No stated cut-off is given here; in the data, active means growth inhibition above about 70%; inactive means the rest.
Bench note: report the call from 1 for active, -1 for inactive

# example entries with known answers
compound=Cc1nc(C(N)=S)sc1C(=O)CC(=O)C(=O)Nc1c(C(C)C)cccc1C(C)C classlabel=-1
compound="COc1ccc(C2OC3=C(Nc4ccc(Cl)cc4N3)C2=O)cc1 (configuration not stated)" classlabel=-1
compound="CCNC(C(=O)O)C1CCCCC1 (configuration not stated)" classlabel=-1
compound="CC(O)c1cc2c(s1)C(=O)c1scc(C(C)O)c1C2=O (configuration not stated)" classlabel=1
compound=COc1cc2c(cc1OCc1ccccc1)NC(=O)C2 classlabel=-1

In this assay, the call recorded for "CN(C)CSCCO" was what?
-1

In this assay, the call recorded for CCCCCCCCCCCCCCCCCC1(c2ccccc2)NC(=O)NC1=O (configuration not stated) was what?
-1

---

Assay: NCI Yeast Anticancer Drug Screen. Data for the bub3 strain (AID 167)
Conditions: S. cerevisiae bub3 mutant strain, at 50.0 µM, active compounds read high
The panel holds about 79,000 compounds, 15% with a hit somewhere; the sample as a whole holds those more often.
observable: growth inhibition (%)
Numbers only, in %.

As a guide, the following entries are already answered.
compound="COc1nc2c(c(O)cn2C2OCC(OC(C)=O)C(OC(C)=O)C2OC(C)=O)c(=O)n1C (configuration not stated)" result=-1
compound=O=CCC1CCCCC1 result=22.1

Provide reported growth inhibition for each item, in the same order as listed.
1. Cc1ccc(NC2=CC(=O)c3ccccc3C2=O)cc1
2. O=C1CSC(c2cccs2)N1c1nncs1 (configuration not stated)
3. O=C(Nc1ccc2c(c1)Cc1ccccc1-2)C(Cl)Cl
4. CCOC1=C([N+](=O)[O-])C(c2ccccc2)NC1=O (configuration not stated)

1. 13.8
2. 11.6
3. 42.5
4. -35.3

---

Assay: NCI Yeast Anticancer Drug Screen. Data for the cln2 rad14 strain (AID 165);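 further: 0% = growth equal to vehicle treated cultures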
Conditions: S. cerevisiae cln2 rad14 strain, at 50.0 µM, active compounds read high
The panel holds about 79,000 compounds, 15% with a hit somewhere; the sample as a whole holds those more often.
Give criterion met when the value for growth inhibition is at least -10%. Give criterion not met when it is less.

compound=CCOc1ccc(NC(=O)C2=C(C)NC(C)=C(C(=O)Nc3ccc(OCC)cc3)C2c2ccccc2)cc1 classlabel="criterion not met"
compound="COC(=O)C1C2CC3C1C3C2C(=O)OC (stereo unspecified)" classlabel="criterion met"
compound="COC1=CC(=O)c2ccccc2C1(CCC=C(C)C)C1=NC(C)(C)CO1 (stereo unspecified)" classlabel="criterion met"
compound=Cc1ccc(Nc2nc(NS(=O)(=O)c3cc(C)c(Cl)cc3S)n(C)n2)cc1 classlabel="criterion met"
compound="NCC1(N2CCOCC2)C2CCCC21CNc1ccccc1 (stereo unspecified)" classlabel="criterion met"

Test whether the compound "O/N=C(/CN1CCOCC1)c1ccccc1" records growth inhibition of -10% or higher.
criterion not met

Test whether the compound "O=C(NC1CCCCC1)/C(=C\c1ccc(/C=C(/NC(=O)c2ccccc2)C(=O)NC2CCCCC2)cc1)NC(=O)c1ccccc1" records growth inhibition of -10% or higher.
criterion not met
